tested on: Aβ42; assay: Amyloidβ peptide release (Aβ42) assay, AlphaLisa on supernatant of APPswe-HEK cells; assay type: cell-based; settings: Homo sapiens, 24 hours incubation with compound, read-out: Ab42 IC50 Ranges
Measured IC50 accompanies every entry in the list below.

For orientation, consider the following solved cases.
>  <molecule>
COc1cc(NC(=O)c2nnn3c2CCC[C@H]3c2ccc(Cl)cc2)ccc1-n1cnc(C)c1

>  <IC50>
150 to 500 nM

$$$$
>  <molecule>
COc1cc(C(=O)Nc2nnn3c2CCCC3c2cccc(C(F)(F)F)c2)ccc1-n1cnc(C)c1 (stereo not drawn)

>  <IC50>
500 to 1000 nM

$$$$

Qu. Please provide the recorded IC50 for COc1cc(Nc2nnn3c2CCC3c2ccc(Cl)cc2)ccc1-n1cnc(C)c1 (stereo not drawn) , tested on Aβ42.
Ans. 150 to 500 nM
